Measured values drawn from PubChem BioAssay AID2060897 for this set.

- System: 966289-007-R4-J1-PDC complex spheroid viability
- Measurement protocol: Anticancer human tumor 966289-007-R4-J1-PDC patient-derived pancreatic adenocarcinoma cell line growth inhibition [RAS]; active = viability on the fitted dose curve at most 10% of control; inactive = the rest
- Stated conditions: second compound 0.0316 µM; first compound 0.00949 µM
Tick one outcome: 1 = active, 0 = inactive

Previously resolved entries follow.
1. CC1(C)CCC(Nc2ncc(C(F)(F)F)c(-c3c[nH]c4c(P(C)(C)=O)c(C#N)ccc34)n2)CN1 (centres undefined) + C=CC(=O)N1CCN(c2nc(OCC3CCCN3C)nc3c(F)c(-c4nc(N)cc(C)c4C(F)(F)F)c(Cl)cc23)C(C)C1: 0
2. CC1(C)CCC(Nc2ncc(C(F)(F)F)c(-c3c[nH]c4c(P(C)(C)=O)c(C#N)ccc34)n2)CN1 (centres undefined) + C#Cc1c(F)ccc2cc(O)cc(-c3ncc4c(N5CC6CCC(C5)N6)nc(OCC56CCCN5CC(F)C6)nc4c3F)c12: 0
3. CCc1c2c(nc3ccc(O)cc13)-c1cc3c(c(=O)n1C2)COC(=O)[C@]3(O)CC + C=CC(=O)N1CCN(c2nc(OCC3CCCN3C)nc3c(F)c(-c4nc(N)cc(C)c4C(F)(F)F)c(Cl)cc23)C(C)C1: 1

# evaluate next
# lookup: test call for CCc1c2c(nc3ccc(O)cc13)-c1cc3c(c(=O)n1C2)COC(=O)[C@]3(O)CC + C#Cc1c(F)ccc2cc(O)cc(-c3ncc4c(N5CC6CCC(C5)N6)nc(OCC56CCCN5CC(F)C6)nc4c3F)c12
1

----------
Listing of recorded viability, T/C by entry.
- Test system: 966289-007-R4-J1-PDC complex spheroid viability
- Measurement protocol: Anticancer human tumor 966289-007-R4-J1-PDC cell line growth inhibition [RAS];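 note: spheroids exposed to agents for one week before readout; percent viability relative to DMSO vehicle control wells as 100%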
- Stated conditions: second compound 0.3 µM; first compound 0.316 µM; active compounds read low
Provide the reading as a plain figure in %.

I would be grateful if you could share the reported viability, T/C for CC(C)NCC(C(=O)N1CCN(c2ncnc3c2C(C)CC3O)CC1)c1ccc(Cl)cc1 (centres undefined) + CCn1c(-c2cc(N3CCN(C)CC3)cnc2C(C)OC)c2c3cc(ccc31)-c1csc(n1)CC(NC(=O)C1CC1C)C(=O)N1CCCC(N1)C(=O)OCC(C)(C)C2 .
112

Quick one: viability, T/C of CCN1CCN(Cc2ccc(Nc3ncc(F)c(-c4cc(F)c5nc(C)n(C(C)C)c5c4)n3)nc2)CC1 + CCn1c(-c2cc(N3CCN(C)CC3)cnc2C(C)OC)c2c3cc(ccc31)-c1csc(n1)CC(NC(=O)C1CC1C)C(=O)N1CCCC(N1)C(=O)OCC(C)(C)C2 ?
97.9

Recorded viability, T/C of Cc1nc(N2CCC3(CC2)COC(C)C3N)c(CO)nc1Sc1ccnc(N)c1Cl (centres undefined) + CCn1c(-c2cc(N3CCN(C)CC3)cnc2C(C)OC)c2c3cc(ccc31)-c1csc(n1)CC(NC(=O)C1CC1C)C(=O)N1CCCC(N1)C(=O)OCC(C)(C)C2 , please.
110

viability, T/C lookup needed for CC1(O)CCCC1n1c(=O)c(C(F)F)cc2cnc(NC3CCN(S(C)(=O)=O)CC3)nc21 (centres undefined) + CCn1c(-c2cccnc2C(C)OC)c2c3cc(ccc31)N1CCOC(CC(NC(=O)C(C(C)C)N(C)C(=O)C3(F)CCN(C(=O)C#CC(C)(C)N(C)C)CC3)C(=O)N3CCCC(N3)C(=O)OCC(C)(C)C2)C1 , thanks.
16

----------
- Test system: 966289-007-R4-J1-PDC complex spheroid viability
- Measurement protocol: Anticancer human tumor 966289-007-R4-J1-PDC cell line growth inhibition [RAS];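 note: spheroids exposed to agents for one week before readout; percent viability relative to DMSO vehicle control wells as 100%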
- Stated conditions: second compound 0.00949 µM; first compound 1 µM; active compounds read low
- Description: RAS pathway inhibitors in Combinations in Complex Spheroids A high-throughput screen of multi-cell type tumor spheroids was designed to identify active combinations of RAS pathway inhibitors and targeted small molecules. Complex spheroids include a stromal component modeled by human endothelial cells (HUVEC) and fibroblasts modeled by human mesenchymal stem cells (MSCs). […] Compounds. […] If the clinical Cmax for an agent had not been determined, the highest concentration tested was 10 microM. […]
Observation type: viability, T/C (%)
The reply should contain only the number, in %.

1. C=CC(=O)Nc1cc(Nc2nccc(-c3cn(C)c4ccccc34)n2)c(OC)cc1N(C)CCN(C)C + CCn1c(-c2cccnc2C(C)OC)c2c3cc(ccc31)N1CCOC(CC(NC(=O)C(C(C)C)N(C)C(=O)C3(F)CCN(C(=O)C#CC(C)(C)N(C)C)CC3)C(=O)N3CCCC(N3)C(=O)OCC(C)(C)C2)C1: 78.4
2. C=CC(=O)Nc1cc(Nc2nccc(-c3cn(C)c4ccccc34)n2)c(OC)cc1N(C)CCN(C)C + CCn1c(-c2cc(N3CCN(C)CC3)cnc2C(C)OC)c2c3cc(ccc31)-c1csc(n1)CC(NC(=O)C1CC1C)C(=O)N1CCCC(N1)C(=O)OCC(C)(C)C2: 94.7
3. CC(=O)OC12COC1CC(O)C1(C)C(=O)C(O)C3=C(C)C(OC(=O)C(O)C(NC(=O)OC(C)(C)C)c4ccccc4)CC(O)(C(OC(=O)c4ccccc4)C21)C3(C)C (configuration not stated) + CCn1c(-c2cccnc2C(C)OC)c2c3cc(ccc31)N1CCOC(CC(NC(=O)C(C(C)C)N(C)C(=O)C3(F)CCN(C(=O)C#CC(C)(C)N(C)C)CC3)C(=O)N3CCCC(N3)C(=O)OCC(C)(C)C2)C1: 16.3
4. NC1c2ccccc2OC12CCN(c1cnc3c(N4CCCc5ncccc54)n[nH]c3n1)CC2 (configuration not stated) + CCn1c(-c2cc(N3CCN(C)CC3)cnc2C(C)OC)c2c3cc(ccc31)-c1csc(n1)CC(NC(=O)C1CC1C)C(=O)N1CCCC(N1)C(=O)OCC(C)(C)C2: 111
5. CC1(O)CCCC1n1c(=O)c(C(F)F)cc2cnc(NC3CCN(S(C)(=O)=O)CC3)nc21 (configuration not stated) + CCn1c(-c2cccnc2C(C)OC)c2c3cc(ccc31)N1CCOC(CC(NC(=O)C(C(C)C)N(C)C(=O)C3(F)CCN(C(=O)C#CC(C)(C)N(C)C)CC3)C(=O)N3CCCC(N3)C(=O)OCC(C)(C)C2)C1: 18.9
6. CCN1CCN(Cc2ccc(Nc3ncc(F)c(-c4cc(F)c5nc(C)n(C(C)C)c5c4)n3)nc2)CC1 + CCn1c(-c2cccnc2C(C)OC)c2c3cc(ccc31)N1CCOC(CC(NC(=O)C(C(C)C)N(C)C(=O)C3(F)CCN(C(=O)C#CC(C)(C)N(C)C)CC3)C(=O)N3CCCC(N3)C(=O)OCC(C)(C)C2)C1: 78.5

Turning now to a further record.
# lookup: viability, T/C of CC(C)NCC(C(=O)N1CCN(c2ncnc3c2C(C)CC3O)CC1)c1ccc(Cl)cc1 (configuration not stated) + CCn1c(-c2cccnc2C(C)OC)c2c3cc(ccc31)N1CCOC(CC(NC(=O)C(C(C)C)N(C)C(=O)C3(F)CCN(C(=O)C#CC(C)(C)N(C)C)CC3)C(=O)N3CCCC(N3)C(=O)OCC(C)(C)C2)C1
114

----------
Some compounds, each annotated with its measured viability, T/C.
- System: 966289-007-R4-J1-PDC complex spheroid viability
- Measurement protocol: Anticancer human tumor 966289-007-R4-J1-PDC cell line growth inhibition [RAS];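 note: spheroids exposed to agents for one week before readout; percent viability relative to DMSO vehicle control wells as 100%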
- Stated conditions: second compound 0.316 µM; first compound 0.000949 µM; active compounds read low

Here are 3 compounds together with their reported answers.
1. CCc1c2c(nc3ccc(O)cc13)-c1cc3c(c(=O)n1C2)COC(=O)[C@]3(O)CC + C#Cc1c(F)ccc2cc(O)cc(-c3ncc4c(N5CC6CCC(C5)N6)nc(OCC56CCCN5CC(F)C6)nc4c3F)c12: 76.5%
2. CC1(C)CCC(Nc2ncc(C(F)(F)F)c(-c3c[nH]c4c(P(C)(C)=O)c(C#N)ccc34)n2)CN1 (centres undefined) + C=CC(=O)N1CCN(c2nc(OCC3CCCN3C)nc3c(F)c(-c4nc(N)cc(C)c4C(F)(F)F)c(Cl)cc23)C(C)C1: 103%
3. CCc1c2c(nc3ccc(O)cc13)-c1cc3c(c(=O)n1C2)COC(=O)[C@]3(O)CC + C=CC(=O)N1CCN(c2nc(OCC3CCCN3C)nc3c(F)c(-c4nc(N)cc(C)c4C(F)(F)F)c(Cl)cc23)C(C)C1: 68.3%

With those in mind, consider the next compound.
Would you kindly share the measured viability, T/C for CC1(C)CCC(Nc2ncc(C(F)(F)F)c(-c3c[nH]c4c(P(C)(C)=O)c(C#N)ccc34)n2)CN1 (centres undefined) + C#Cc1c(F)ccc2cc(O)cc(-c3ncc4c(N5CC6CCC(C5)N6)nc(OCC56CCCN5CC(F)C6)nc4c3F)c12 ?
102%

----------
- Test system: 966289-007-R4-J1-PDC complex spheroid viability
- Measurement protocol: Anticancer human tumor 966289-007-R4-J1-PDC cell line growth inhibition [RAS];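 note: spheroids exposed to agents for one week before readout; percent viability relative to DMSO vehicle control wells as 100%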
- Stated conditions: second compound 3.16 µM; first compound 0.01 µM; active compounds read low
Observation type: viability, T/C (%)
Use % as the unit, but write only the number.

Recorded viability, T/C, per entry:
1) C=CC(=O)Nc1cc(Nc2nccc(-c3cn(C)c4ccccc34)n2)c(OC)cc1N(C)CCN(C)C + C#Cc1c(F)ccc2cc(O)cc(-c3ncc4c(N5CC6CCC(C5)N6)nc(OCC56CCCN5CC(F)C6)nc4c3F)c12: 107
2) CC(C)n1nc(-c2ccc3oc(N)nc3c2)c2c(N)ncnc21 + C#Cc1c(F)ccc2cc(O)cc(-c3ncc4c(N5CC6CCC(C5)N6)nc(OCC56CCCN5CC(F)C6)nc4c3F)c12: 105
3) CCN1CCN(Cc2ccc(Nc3ncc(F)c(-c4cc(F)c5nc(C)n(C(C)C)c5c4)n3)nc2)CC1 + C#Cc1c(F)ccc2cc(O)cc(-c3ncc4c(N5CC6CCC(C5)N6)nc(OCC56CCCN5CC(F)C6)nc4c3F)c12: 109
4) C=CC(=O)N1CCN(c2nc(OCC3CCCN3C)nc3c(F)c(-c4nc(N)cc(C)c4C(F)(F)F)c(Cl)cc23)C(C)C1 (stereo unspecified) + C#Cc1c(F)ccc2cc(O)cc(-c3ncc4c(N5CC6CCC(C5)N6)nc(OCC56CCCN5CC(F)C6)nc4c3F)c12: 107
5) O=C(c1ccc(F)c(F)c1Nc1ccc(I)cc1F)N1CC(O)([C@@H]2CCCCN2)C1 + C#Cc1c(F)ccc2cc(O)cc(-c3ncc4c(N5CC6CCC(C5)N6)nc(OCC56CCCN5CC(F)C6)nc4c3F)c12: 72.9

Now look at this entry.
Entry under review: Nc1ccn(C2OC(CO)C(O)C2(F)F)c(=O)n1 (stereo unspecified) + C#Cc1c(F)ccc2cc(O)cc(-c3ncc4c(N5CC6CCC(C5)N6)nc(OCC56CCCN5CC(F)C6)nc4c3F)c12 . Reported viability, T/C?
41.4
